Subject Of Test: PAD3 (Homo sapiens)
Construct: made in house
Sequence (Q9ULW8 whole entry): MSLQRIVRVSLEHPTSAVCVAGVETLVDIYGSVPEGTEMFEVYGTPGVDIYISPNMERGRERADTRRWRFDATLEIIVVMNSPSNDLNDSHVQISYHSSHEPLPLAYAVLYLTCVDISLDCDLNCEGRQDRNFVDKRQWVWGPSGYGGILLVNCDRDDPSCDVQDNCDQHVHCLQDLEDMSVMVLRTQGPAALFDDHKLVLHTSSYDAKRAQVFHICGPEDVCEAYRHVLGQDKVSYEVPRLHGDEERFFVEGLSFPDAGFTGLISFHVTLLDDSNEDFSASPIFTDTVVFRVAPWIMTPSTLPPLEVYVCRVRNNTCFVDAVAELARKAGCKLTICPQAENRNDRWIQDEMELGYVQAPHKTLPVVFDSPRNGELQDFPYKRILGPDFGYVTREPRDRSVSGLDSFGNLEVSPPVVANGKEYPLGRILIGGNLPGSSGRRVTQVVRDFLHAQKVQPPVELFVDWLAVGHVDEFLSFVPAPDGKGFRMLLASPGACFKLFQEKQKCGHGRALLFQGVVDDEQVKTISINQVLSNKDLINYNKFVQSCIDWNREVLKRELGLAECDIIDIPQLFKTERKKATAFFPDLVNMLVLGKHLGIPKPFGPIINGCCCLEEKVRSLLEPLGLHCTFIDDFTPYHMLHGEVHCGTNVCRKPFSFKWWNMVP
Experimental Details: Inactivation kinetics of PAD3 (COLDER citrulline assay)
Type: biochemical
Run Conditions: bracketed value under kinact/KI
Quantity Name: Fold PAD selectivity

Please review the entries below; each comes with its answer.
N=C(CCl)NCCC[C@H](NC(=O)c1cc(I)ccc1O)c1nc2ccccc2[nH]1
[3] fold
COc1c(I)cc(I)cc1C(=O)NC(CCCNC(=N)CF)c1nc2ccccc2[nH]1 (stereo not shown)
[3] fold
N=C(CF)NCCC[C@H](NC(=O)c1cc(I)cc(I)c1O)c1nc2ccccc2[nH]1
[1] fold
N=C(CCl)NCCC[C@H](NC(=O)c1cccc(I)c1O)c1nc2ccccc2[nH]1
[1] fold
CC(C)c1cc(C(=O)N[C@@H](CCCNC(=N)CF)c2nc3ccccc3[nH]2)c(O)c(C(C)C)c1
[3] fold

Identify Fold PAD selectivity associated with the molecule C#Cc1c(I)cc(C(=O)N[C@@H](CCCNC(=N)CCl)c2nc3ccccc3[nH]2)c(O)c1I
[1] fold

* * *

Subject Of Test: PAD1 (Homo sapiens)
Construct: made in house
Experimental Details: Inactivation kinetics of PAD1 (COLDER citrulline assay)
Type: biochemical
Run Conditions: PAD1; relative to parent compound 1
Please respond with reported fold less potent than 1 (drop in potency for PAD1) for every item in the list.
Hi! Could you send only the number? It should be in fold, unit omitted.

Identify fold less potent than 1 (drop in potency for PAD1) associated with the compound N=C(CF)NCCC[C@H](NC(=O)c1cccc(I)c1O)c1nc2ccccc2[nH]1
35

Identify fold less potent than 1 (drop in potency for PAD1) associated with the compound N=C(CF)NCCC[C@H](NC(=O)c1cc(I)ccc1O)c1nc2ccccc2[nH]1
7

Identify fold less potent than 1 (drop in potency for PAD1) associated with the compound N=C(CF)NCCC[C@H](NC(=O)c1cc(Cl)cc(Cl)c1O)c1nc2ccccc2[nH]1
8

Identify fold less potent than 1 (drop in potency for PAD1) associated with the compound N=C(CF)NCCC[C@H](NC(=O)c1cc(Br)cc(Br)c1O)c1nc2ccccc2[nH]1
3

* * *

Subject Of Test: PAD2 (Homo sapiens, UniProt Q9Y2J8)
Construct: made in house
Sequence (Q9Y2J8 whole entry): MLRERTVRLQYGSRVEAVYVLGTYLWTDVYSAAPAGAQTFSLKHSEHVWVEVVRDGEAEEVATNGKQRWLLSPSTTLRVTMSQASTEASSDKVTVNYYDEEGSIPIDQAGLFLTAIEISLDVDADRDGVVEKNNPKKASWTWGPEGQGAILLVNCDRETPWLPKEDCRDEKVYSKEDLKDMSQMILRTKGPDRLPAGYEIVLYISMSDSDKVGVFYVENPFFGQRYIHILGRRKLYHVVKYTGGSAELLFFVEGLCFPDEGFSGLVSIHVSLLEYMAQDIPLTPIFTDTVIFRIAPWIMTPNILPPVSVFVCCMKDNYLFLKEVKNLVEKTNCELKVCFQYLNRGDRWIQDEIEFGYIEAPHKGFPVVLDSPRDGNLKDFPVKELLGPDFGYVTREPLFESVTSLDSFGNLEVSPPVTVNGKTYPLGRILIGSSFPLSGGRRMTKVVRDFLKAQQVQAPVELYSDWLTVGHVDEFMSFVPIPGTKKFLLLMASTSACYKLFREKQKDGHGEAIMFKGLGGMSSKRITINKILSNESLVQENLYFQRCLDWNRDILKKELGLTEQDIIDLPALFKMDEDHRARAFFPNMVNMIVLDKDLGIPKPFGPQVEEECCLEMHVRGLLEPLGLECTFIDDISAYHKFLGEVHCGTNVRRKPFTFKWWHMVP
Experimental Details: Inactivation kinetics of PAD2 (COLDER citrulline assay)
Type: biochemical
Run Conditions: bracketed value under kinact/KI
Quantity Name: Fold PAD selectivity

Please review the entries below; each comes with its answer.
N=C(CF)NCCC[C@H](NC(=O)c1cc(I)ccc1O)c1nc2ccccc2[nH]1
[1] fold
N=C(CF)NCCC[C@H](NC(=O)c1cc(I)c(F)c(I)c1O)c1nc2ccccc2[nH]1
[1] fold
CC(C)c1cc(C(=O)N[C@@H](CCCNC(=N)CF)c2nc3ccccc3[nH]2)c(O)c(C(C)C)c1
[2] fold
N=C(CF)NCCC[C@H](NC(=O)c1cc(I)cc(I)c1)c1nc2ccccc2[nH]1
[1] fold
N=C(CCl)NCCC[C@H](NC(=O)c1cccc(I)c1O)c1nc2ccccc2[nH]1
[2] fold
N=C(CF)NCCC[C@H](NC(=O)c1cc(I)cc(I)c1O)c1nc2ccccc2[nH]1
[1] fold
N=C(CF)NCCC[C@H](NC(=O)c1cc(Cl)cc(Cl)c1O)c1nc2ccccc2[nH]1
[1] fold
COc1c(I)cc(I)cc1C(=O)NC(CCCNC(=N)CF)c1nc2ccccc2[nH]1 (stereo not drawn)
[2] fold

With those in mind, consider the next compound.
Provide Fold PAD selectivity, system PAD2 (Homo sapiens, UniProt Q9Y2J8), entry N=C(CF)NCCC[C@H](NC(=O)c1cc(Br)cc(Br)c1O)c1nc2ccccc2[nH]1
[1] fold

* * *

Subject Of Test: PAD1 (Homo sapiens, UniProt Q9ULC6)
Construct: made in house
Sequence (Q9ULC6 whole entry): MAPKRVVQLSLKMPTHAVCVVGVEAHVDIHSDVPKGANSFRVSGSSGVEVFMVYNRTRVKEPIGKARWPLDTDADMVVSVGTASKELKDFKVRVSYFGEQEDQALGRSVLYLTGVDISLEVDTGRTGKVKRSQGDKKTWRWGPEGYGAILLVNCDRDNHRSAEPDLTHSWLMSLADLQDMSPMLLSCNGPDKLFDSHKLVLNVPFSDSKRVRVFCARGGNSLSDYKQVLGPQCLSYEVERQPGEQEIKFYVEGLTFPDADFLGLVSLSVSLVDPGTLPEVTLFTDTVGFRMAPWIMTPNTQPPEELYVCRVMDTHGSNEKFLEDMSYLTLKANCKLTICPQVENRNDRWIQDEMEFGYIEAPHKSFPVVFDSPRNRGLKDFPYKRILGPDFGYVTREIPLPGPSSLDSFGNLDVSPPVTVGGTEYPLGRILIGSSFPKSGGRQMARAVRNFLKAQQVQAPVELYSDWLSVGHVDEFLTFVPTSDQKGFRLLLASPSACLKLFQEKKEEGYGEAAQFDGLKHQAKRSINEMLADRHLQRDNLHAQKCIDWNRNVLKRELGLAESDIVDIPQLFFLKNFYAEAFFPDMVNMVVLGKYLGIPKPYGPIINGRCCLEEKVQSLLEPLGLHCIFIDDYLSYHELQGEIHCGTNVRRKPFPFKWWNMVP
Experimental Details: Inactivation kinetics of PAD1 (COLDER citrulline assay)
Assay type: biochemical
Run Conditions: PAD1; marks: * nonlinear fit of kobs versus [I], ‡ linear fit, † single kobs; read-out: kinact/KI (converted)
Quantity Name: kinact/KI (M⁻¹ s⁻¹)
Hi! Could you send only the number? It should be in M⁻¹ s⁻¹, unit omitted.

Identify kinact/KI associated with the molecule N=C(CF)NCCC[C@H](NC(=O)c1cc(Cl)cc(Cl)c1O)c1nc2ccccc2[nH]1 [Compound 13]
21.5

Identify kinact/KI associated with the molecule N=C(CF)NCCC[C@H](NC(=O)c1cc(I)cc(I)c1O)c1nc2ccccc2[nH]1 [Compound 1]
173

Identify kinact/KI associated with the molecule N=C(CCl)NCCC[C@H](NC(=O)c1ccccc1O)c1nc2ccccc2[nH]1 [Compound 8]
10

Identify kinact/KI associated with the molecule N=C(CF)NCCC[C@H](NC(=O)c1cc(Br)cc(Br)c1O)c1nc2ccccc2[nH]1 [Compound 11]
54.7

Identify kinact/KI associated with the molecule N=C(CF)NCCC[C@H](NC(=O)c1cc(I)c(F)c(I)c1O)c1nc2ccccc2[nH]1 [Compound 19]
221

Identify kinact/KI associated with the molecule N=C(CF)NCCC[C@H](NC(=O)c1cc(I)ccc1O)c1nc2ccccc2[nH]1 [Compound 15]
25

Identify kinact/KI associated with the molecule COc1c(I)cc(I)cc1C(=O)NC(CCCNC(=N)CF)c1nc2ccccc2[nH]1 (centres unmarked) [Compound 3]
97.8

Identify kinact/KI associated with the molecule N=C(CF)NCCC[C@H](NC(=O)c1cc(I)cc(I)c1)c1nc2ccccc2[nH]1 [Compound 5]
121

* * *

Subject Of Test: UniProtKB Q9ULC6
Quantity Name: IC50 (µM)
Hi! Could you send only the number? It should be in µM, unit omitted.

Identify IC50 associated with the compound N=C(CF)NCCC[C@H](NC(=O)c1cc(I)cc(I)c1O)c1nc2ccccc2[nH]1 [Compound 1]
18

* * *

Subject Of Test: PAD3 (Homo sapiens)
Construct: made in house
Experimental Details: Inactivation kinetics of PAD3 (COLDER citrulline assay)
Format: biochemical
Run Conditions: marks: * nonlinear fit of kobs versus [I], ‡ linear fit, † single kobs
Quantity Name: kinact/KI

Identify kinact/KI associated with the compound N=C(CCl)NCCC[C@H](NC(=O)c1cc(I)ccc1O)c1nc2ccccc2[nH]1
5000 ± 280^‡ M^−1min^−1

Identify kinact/KI associated with the compound CC(C)c1cc(C(=O)N[C@@H](CCCNC(=N)CF)c2nc3ccccc3[nH]2)c(O)c(C(C)C)c1
580 ± 120^† M^−1min^−1

Identify kinact/KI associated with the compound N=C(CCl)NCCC[C@H](NC(=O)c1cc(Cl)cc(Cl)c1O)c1nc2ccccc2[nH]1
5500 ± 300^‡ M^−1min^−1

Identify kinact/KI associated with the compound N=C(CCl)NCCC[C@H](NC(=O)c1cccc(I)c1O)c1nc2ccccc2[nH]1
1170 ± 40^† M^−1min^−1

Identify kinact/KI associated with the compound N=C(CF)NCCC[C@H](NC(=O)c1cccc(I)c1O)c1nc2ccccc2[nH]1
240 ± 30^† M^−1min^−1

Identify kinact/KI associated with the compound C#Cc1c(I)cc(C(=O)N[C@@H](CCCNC(=N)CF)c2nc3ccccc3[nH]2)c(O)c1I
310 ± 80^† M^−1min^−1

Identify kinact/KI associated with the compound C#Cc1c(I)cc(C(=O)N[C@@H](CCCNC(=N)CCl)c2nc3ccccc3[nH]2)c(O)c1I
8200 ± 30* M^−1min^−1

* * *

Subject Of Test: PAD4 (Homo sapiens, UniProt Q9UM07)
Construct: made in house
Sequence (Q9UM07 whole entry): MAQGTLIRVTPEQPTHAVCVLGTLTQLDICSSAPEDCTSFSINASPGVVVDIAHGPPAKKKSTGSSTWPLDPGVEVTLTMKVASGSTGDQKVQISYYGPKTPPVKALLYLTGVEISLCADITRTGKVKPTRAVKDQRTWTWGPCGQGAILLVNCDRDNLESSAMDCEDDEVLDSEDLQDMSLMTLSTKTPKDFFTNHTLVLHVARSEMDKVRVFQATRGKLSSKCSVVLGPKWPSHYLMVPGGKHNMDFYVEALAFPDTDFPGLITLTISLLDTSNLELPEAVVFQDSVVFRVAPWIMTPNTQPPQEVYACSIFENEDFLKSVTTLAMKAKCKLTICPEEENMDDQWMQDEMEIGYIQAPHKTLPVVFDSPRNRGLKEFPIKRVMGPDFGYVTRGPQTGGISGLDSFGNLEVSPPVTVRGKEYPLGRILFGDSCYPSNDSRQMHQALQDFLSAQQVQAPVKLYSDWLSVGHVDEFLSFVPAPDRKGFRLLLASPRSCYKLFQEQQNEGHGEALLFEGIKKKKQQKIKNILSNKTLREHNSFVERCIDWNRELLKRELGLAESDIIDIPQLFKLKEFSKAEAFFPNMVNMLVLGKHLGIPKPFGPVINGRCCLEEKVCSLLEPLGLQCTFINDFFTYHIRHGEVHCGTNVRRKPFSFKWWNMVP
Experimental Details: Inactivation kinetics of PAD4 (COLDER citrulline assay)
Type: biochemical
Run Conditions: bracketed value under kinact/KI
Quantity Name: Fold PAD selectivity

Please review the entries below; each comes with its answer.
N=C(CF)NCCC[C@H](NC(=O)c1cc(I)cc(I)c1)c1nc2ccccc2[nH]1
[1] fold
COc1c(I)cc(I)cc1C(=O)NC(CCCNC(=N)CF)c1nc2ccccc2[nH]1 (stereo not shown)
[1] fold
CC(C)c1cc(C(=O)N[C@@H](CCCNC(=N)CF)c2nc3ccccc3[nH]2)c(O)c(C(C)C)c1
[1] fold
C#Cc1c(I)cc(C(=O)N[C@@H](CCCNC(=N)CF)c2nc3ccccc3[nH]2)c(O)c1I
[2] fold

Identify Fold PAD selectivity associated with the compound N=C(CCl)NCCC[C@H](NC(=O)c1cc(Cl)cc(Cl)c1O)c1nc2ccccc2[nH]1
[1] fold

Identify Fold PAD selectivity associated with the compound N=C(CCl)NCCC[C@H](NC(=O)c1cc(I)ccc1O)c1nc2ccccc2[nH]1
[2] fold

* * *

Subject Of Test: PAD1 (Homo sapiens, UniProt Q9ULC6)
Construct: made in house
Experimental Details: Inactivation kinetics of PAD1 (COLDER citrulline assay)
Format: biochemical
Run Conditions: PAD1; marks: * nonlinear fit of kobs versus [I], ‡ linear fit, † single kobs
Please respond with reported kinact/KI for every item in the list.

Provide kinact/KI, system PAD1 (Homo sapiens, UniProt Q9ULC6), entry N=C(CCl)NCCC[C@H](NC(=O)c1cccc(I)c1O)c1nc2ccccc2[nH]1 [Compound 18]
4100 ± 300^‡ M^−1min^−1

Provide kinact/KI, system PAD1 (Homo sapiens, UniProt Q9ULC6), entry C#Cc1c(I)cc(C(=O)N[C@@H](CCCNC(=N)CF)c2nc3ccccc3[nH]2)c(O)c1I [Compound 21]
4480 ± 200* M^−1min^−1

Provide kinact/KI, system PAD1 (Homo sapiens, UniProt Q9ULC6), entry CC(C)c1cc(C(=O)N[C@@H](CCCNC(=N)CF)c2nc3ccccc3[nH]2)c(O)c(C(C)C)c1 [Compound 9]
190 ± 20^† M^−1min^−1
